Tested on: pERK in PSN1 cells
Test: Inhibition of KRas phosphorylation of ERK (Cisbio HTRF pERK assay)
Conditions: Homo sapiens, PSN1, 3 h, read-out: Inhibition (HTRF IC50) of KRas-mediated Phosphorylation of ERK, PSN1
pIC50: −log10 of the molar value.
propertyName: pIC50

>  <compound>
C[C@@]1(O)CCCN(c2nc(OC[C@@]34CCCN3C[C@H](F)C4)nc3c(F)c(-c4cc(O)cc5ccc(F)c(Br)c45)ncc23)C1

>  <observedValue>
6.45

$$$$

[P] CN(C)C(=O)c1cc2n(n1)CCCN(c1nc(OC[C@@]34CCCN3C[C@H](F)C4)nc3c(F)c(-c4cc(O)cc5ccc(F)c(Cl)c45)ncc13)C2
[Q] C#Cc1c(F)ccc2cc(O)cc(-c3ncc4c(N5CCOC[C@](C)(O)C5)nc(OC[C@@]56CCCN5C[C@H](F)C6)nc4c3F)c12 (single isomer, unassigned)
Enquiry: Recorded pIC50 values differ for P and Q ; which one is higher? Record your answer as the label of the chosen record.
Return: Q

----------
Target: KRas G12D (Homo sapiens, UniProt P01116, G12D)
Sequence (P01116 1-169 isoform P01116-2 G12D): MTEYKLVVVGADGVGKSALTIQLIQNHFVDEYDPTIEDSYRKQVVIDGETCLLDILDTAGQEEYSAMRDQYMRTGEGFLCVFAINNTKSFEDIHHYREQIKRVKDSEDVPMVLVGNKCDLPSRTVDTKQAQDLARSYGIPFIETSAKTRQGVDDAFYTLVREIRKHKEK
Experiment: biochemical
pIC50: −log10 of the molar value.
propertyName: pIC50

>  <molecule>
Cc1cc2[nH]ncc2c(-c2ncc3c(N4CCCC(C)(O)C4)nc(OCC45CCCN4CCC5)nc3c2F)c1C (stereo not drawn)

>  <assayTarget>
KRas G12D (Homo sapiens, UniProt P01116, G12D)

>  <pIC50>
6.36

$$$$

[A] O=C1CC2(CCCN(c3nc(OCC45CCCN4CCC5)nc4c(F)c(-c5cccc6cccc(F)c56)ncc34)C2)CN1 (stereo not drawn)
[B] CCc1c(F)ccc2cc(O)cc(-c3ncc4c(N5CCOC6(CCS(=N)(=O)CC6)C5)nc(OC[C@@]56CCCN5C[C@H](F)C6)nc4c3F)c12 (stereo partly drawn)
[C] Oc1cc(-c2ncc3c(N4CC5CC(O)CC4C5)nc(OC[C@@]45CCCN4C[C@H](F)C5)nc3c2F)c2c(Cl)c(F)ccc2c1 (stereo partly drawn)
Enquiry: Descending sort on pIC50 required. Enter labels, ranked according to the request.
Return: C, B, A
(C: 8.15, B: 6.52, A: 5.62)

----------
Biological target: KRas G13D (Homo sapiens, UniProt P01116, G13D)
Construct: Biotinylated KRas (corresponding to amino acids 1-169, produced at Accelegan Inc.); biotin (biotinylated); purchased Accelegan Inc
Sequence (P01116 1-169 isoform P01116-2 G13D): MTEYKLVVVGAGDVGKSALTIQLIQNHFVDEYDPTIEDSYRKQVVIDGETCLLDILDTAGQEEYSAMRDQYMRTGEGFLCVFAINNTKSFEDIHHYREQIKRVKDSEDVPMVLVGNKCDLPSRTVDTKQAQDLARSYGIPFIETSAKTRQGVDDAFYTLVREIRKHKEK
Experiment: KRas binding assay (TR-FRET displacement);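 note: One-hour room temperature incubation before TR-FRET reading, IC50 from a four-parameter curve fit to percent-of-control data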
propertyName: IC50 (nM)

Example cases with answers are listed next.
>  <molecule>
OC1CCCN(c2nc(OCC34CCCN3CCC4)nc3c(F)c(-c4cccc5cccc(F)c45)ncc23)CC1 (stereo not shown)

>  <IC50 [nM]>
2500

$$$$
>  <molecule>
Fc1c(-c2cccc3cccc(F)c23)ncc2c(N3CCCC4(CCC(F)C4)C3)nc(OCC34CCCN3CCC4)nc12 (stereo not shown)

>  <IC50 [nM]>
16000

$$$$

[1] O=c1ccc(CNc2nc(OCC34CCCN3CCC4)nc3c(F)c(-c4cccc5cccc(F)c45)ncc23)c[nH]1
[2] Fc1c(-c2cccc3cccc(Cl)c23)ncc2c(N3CCCC3c3cn[nH]c3)nc(OCC34CCCN3CCC4)nc12 (stereo not shown)
Enquiry: Could you tell me which of 1 and 2 has the lower IC50 reading? Response format: the label of the selected entry.
Return: 2

----------
System: pERK in HCT116 cells
Experiment: Inhibition of KRas phosphorylation of ERK (Cisbio HTRF pERK assay)
Details: Homo sapiens, HCT-116, read-out: Inhibition (HTRF IC50) of KRas-mediated Phosphorylation of ERK, HCT116
pIC50: −log10 of the molar value.
propertyName: pIC50

[1] CCc1c(F)ccc2cc(O)cc(-c3ncc4c(N5CCCn6nc(C(=O)N7CCOCC7)cc6C5)nc(OC[C@@]56CCCN5C[C@H](F)C6)nc4c3F)c12
[2] CCc1c(F)ccc2cc(O)cc(-c3ncc4c(N5CCCC(O)(C(F)F)C5)nc(OC[C@@]56CCCN5C[C@H](F)C6)nc4c3F)c12 (stereo partly drawn)
Enquiry: Given the listed records, identify the one among 1 and 2 with higher pIC50. // caller expects the label of the chosen entry
Return: 2
(2: 7.04, 1: 6.21)

[A] CC1(O)COCCN(c2nc(OC[C@@]34CCCN3C[C@H](F)C4)nc3c(F)c(-c4cc(O)cc5ccc(F)c(Br)c45)ncc23)C1 (stereo partly drawn)
[B] C#Cc1c(F)ccc2cc(O)cc(-c3ncc4c(N5CCOC[C@@](C)(O)C5)nc(OC[C@@]56CCCN5C[C@H](F)C6)nc4c3F)c12
Enquiry: Between the entries labelled A and B , which has a larger pIC50 value on record? Select an item and report its label.
Return: A

----------
System: pERK in ASPC1 cells
Test: Inhibition of KRas phosphorylation of ERK (Cisbio HTRF pERK assay)
Conditions: Homo sapiens, ASPC1, read-out: Inhibition (HTRF IC50) of KRas-mediated Phosphorylation of ERK, AsPC-1
propertyName: IC50 (µM)

[a] CCc1c(F)ccc2cc(O)cc(-c3ncc4c(NCC5CC(=O)NC5=O)nc(OC[C@@]56CCCN5C[C@H](F)C6)nc4c3F)c12 (stereo partly drawn)
[b] C#Cc1c(F)ccc2cc(O)cc(-c3ncc4c(N5C[C@@H]6C[C@H](C5)[C@H](O)C6)nc(OC[C@@]56CCCN5C[C@H](F)C6)nc4c3F)c12
Enquiry: Field: lower recorded IC50 (choose a or b ) Which one? Tell me its label.
Return: b
(b: 0.014 µM, a: 0.505 µM)

----------
Biological target: KRas G12C (Homo sapiens, UniProt P01116, G12C)
Sequence (P01116 1-169 isoform P01116-2 G12C): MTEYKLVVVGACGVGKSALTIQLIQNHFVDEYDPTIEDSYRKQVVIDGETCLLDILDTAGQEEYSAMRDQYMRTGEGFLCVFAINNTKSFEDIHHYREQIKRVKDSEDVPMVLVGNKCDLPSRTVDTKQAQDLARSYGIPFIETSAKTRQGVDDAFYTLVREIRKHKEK
Assay: biochemical
propertyName: IC50 (µM)

>  <molecule>
CCc1c(F)ccc2cccc(-c3ncc4c(N5CCCC6(CNC(=O)C6)C5)nc(OC[C@@]56CCCN5C[C@H](F)C6)nc4c3F)c12 (some centres unmarked) [Example 37]

>  <assayTarget>
KRas G12C (Homo sapiens, UniProt P01116, G12C)

>  <propertyName>
IC50

>  <observedValue>
0.056

$$$$

[P] NS(=O)(=O)CC1CCCN(c2nc(OCC34CCCN3CCC4)nc3c(F)c(-c4cccc5cccc(C(F)F)c45)ncc23)C1 (centres unmarked) [Example 463]
[Q] Fc1c(-c2cccc3cccc(F)c23)ncc2c(Nc3cnn(-c4ccncc4)c3)nc(OCC34CCCN3CCC4)nc12 [Example 210]
Enquiry: Hi there, can you help? I need to know whether P or Q has lower measured IC50. Answer = label.
Return: P

----------
Test system: pERK in HCT116 cells
Assay: Inhibition of KRas phosphorylation of ERK (Cisbio HTRF pERK assay)
Settings: Homo sapiens, HCT-116, read-out: Inhibition (HTRF IC50) of KRas-mediated Phosphorylation of ERK, HCT116
propertyName: IC50 (nM)

Below, each entry is followed by its recorded IC50 result.
>  <compound>
CCc1c(F)ccc2cc(O)cc(-c3ncc4c(N5CCC[C@@](C)(O)C5)nc(OCC(C)(C)CN(C)C)nc4c3F)c12

>  <unitsText>
nM

>  <observedValue>
321

$$$$
>  <compound>
CCc1c(F)ccc2cc(O)cc(-c3ncc4c(N5CCCn6nc(C(=O)N(C)C)cc6C5)nc(OCC5(CN(C)C)CC5)nc4c3F)c12

>  <unitsText>
nM

>  <observedValue>
9190

$$$$

[P] CCc1c(F)ccc2cc(O)cc(-c3ncc4c(N5CCC[C@@](C)(O)C5)nc(OCC5(CN6CCCCC6)CC5)nc4c3F)c12
[Q] CCc1c(F)ccc2cc(O)cc(-c3ncc4c(N5CCCC6(CCC(F)(F)C6)C5)nc(OC[C@@]56CCCN5C[C@H](F)C6)nc4c3F)c12 (stereo partly drawn)
Enquiry: Select one: P or Q . Criterion: greater recorded IC50. Answer format: the label of the selected item.
Return: Q

----------
Target: KRas G12D (Homo sapiens, UniProt P01116, G12D)
Experiment: biochemical
propertyName: IC50 (nM)

>  <compound>
OCC1CCCCN(c2nc(OCC34CCCN3CCC4)nc3c(F)c(-c4cccc5cccc(F)c45)ncc23)C1 (stereo not shown) [Example 130]

>  <assayTarget>
KRas G12D (Homo sapiens, UniProt P01116, G12D);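 note: TR-FRET displacement binding assay on KRas, read after a one-hour incubation at room temperature, IC50 fitted from percent-of-control values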

>  <IC50 [nM]>
8360

$$$$

[a] CCc1cccc2cccc(-c3ncc4c(N5CCCC(c6nc[nH]n6)C5)nc(OCC56CCCN5CCC6)nc4c3F)c12 (stereo not shown) [Example 295]
[b] CCc1c(F)ccc2cc(O)cc(-c3ncc4c(N5CCC[C@@](C)(O)C5)nc(C(=O)NC(C)CN(C)C)nc4c3F)c12 (stereo partly shown) [Example 312]
[c] O=C1NC(=O)C2(CCCN(c3nc(OCC45CCCN4CCC5)nc4c(F)c(-c5cccc6cccc(F)c56)ncc34)C2)N1 (stereo not shown) [Example 158]
Enquiry: Task field, ranking: reported IC50, descending order. # answer = labels listed in requested order
Return: a, b, c
(a: 2450 nM, b: 388 nM, c: 152 nM)
